B1: glmS ribozyme (parent)
chain: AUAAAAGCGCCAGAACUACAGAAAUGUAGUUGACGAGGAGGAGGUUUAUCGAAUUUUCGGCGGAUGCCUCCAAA

Variants of: B1
Protocol Notes: self-cleavage kobs at 40 uM GlcN6P; higher = faster cleavage; RNA array
Condition Summary: with glucosamine-6-phosphate
Variants at the floor of the assay were thinned out.
Listed here are variants together with their documented self-cleavage kobs at 40 uM GlcN6P.

The variant identified as AUAAAAGCGCCAGAACUACAGAAAUGUAGUUGACGAGGAGCAGUUUUAUCGAAUUUUCGGCGGAUUCCUCCAAA [G41C G44U G66U] registered its self-cleavage kobs at 40 uM GlcN6P at < 1e-05 s⁻¹

The variant identified as AUAAAAGCGCCAGAAUUACAGAAAUGUAGUUGACGAGGAGGAGGUUUAUCGAAUUUUCGGCGGAUGCCACCAAA [C16U U69A] registered its self-cleavage kobs at 40 uM GlcN6P at 7.08e-05 s⁻¹

Where do these numbers come from? They come from the supplement of paper PMC7125110.
